Recorded T/C, one value per entry.
# System: P388 leukemia ip, CD2F1 mice, survival T/C
# ASSAY_REMARKS: NCI In Vivo Anticancer Drug Screen. Data for tumor model P388 Leukemia (intraperitoneal) in CD2F1 (CDF1) mice
# MEASUREMENT_CONDITIONS: endpoint: median survival time; dose: 7.5 mg/kg/injection; schedule: Q01DX005 (ip); vehicle: saline with Tween-80; higher = longer survival
# Description: The antitumor activity of compounds was measured in mice bearing transplantable tumors. Survival or tumor size were measured and the results are expressed as the measurement made in the treated group (T) divided by the measurement made in the vehicle treated control group (C). The tumor model used in this assay is P388 Leukemia (intraperitoneal) in CD2F1 (CDF1) mice
Inconclusive results and toxic doses are left out.
PROPERTY: T/C

>  <COMPOUND>
COc1cccc2c1C(=O)c1c(O)c(CCl)cc(OC)c1C2=O

>  <RESULT>
108 % of control

$$$$
>  <COMPOUND>
CCOP(=O)(OCC)c1nc(Cl)nc(Cl)c1SC(F)(F)F

>  <RESULT>
104 % of control

$$$$
>  <COMPOUND>
CC(=O)OCC1OC(OC2C=C(O[Si](C)(C)C)C[C@H]3C(=O)C=CC(=O)[C@@H]23)C(OC(C)=O)C(OC(C)=O)C1OC(C)=O (some centres undefined)

>  <RESULT>
98 % of control

$$$$
>  <COMPOUND>
CC(C)=CCCc1ccc2c(c1)C(=O)c1cc3c(cc1C2=O)OCO3

>  <RESULT>
91 % of control

$$$$

* * *

# Test system: P388 leukemia ip, CD2F1 mice, survival T/C
# ASSAY_REMARKS: NCI In Vivo Anticancer Drug Screen. Data for tumor model P388 Leukemia (intraperitoneal) in CD2F1 (CDF1) mice
# MEASUREMENT_CONDITIONS: endpoint: median survival time; dose: 400.0 mg/kg/injection; schedule: Q04DX003 (ip); vehicle: saline; higher = longer survival
Inconclusive results and toxic doses are left out.
The entries below come with measured T/C values attached.
PROPERTY: T/C

>  <MOLECULE>
CC(=O)Nc1ccc(S(=O)(=O)OC(C)C)cc1

>  <MEASURED_TARGET>
P388 leukemia ip, CD2F1 mice, survival T/C

>  <RESULT>
118 % of control

$$$$
>  <MOLECULE>
CCOC(=O)/C=C(\C)N1CCCCC1

>  <MEASURED_TARGET>
P388 leukemia ip, CD2F1 mice, survival T/C

>  <RESULT>
100 % of control

$$$$
>  <MOLECULE>
O=C(O)CC(Cc1ncnc2c1ncn2C1OC(CO)C(O)C1O)C(=O)O (stereo not drawn)

>  <MEASURED_TARGET>
P388 leukemia ip, CD2F1 mice, survival T/C

>  <RESULT>
99 % of control

$$$$
>  <MOLECULE>
CCSC(C/C=C/c1ccccc1)S(=O)CC (stereo not drawn)

>  <MEASURED_TARGET>
P388 leukemia ip, CD2F1 mice, survival T/C

>  <RESULT>
105 % of control

$$$$
>  <MOLECULE>
CCCCCCCCCCCCCCC(Cl)C/[N+]([O-])=[N+](/[O-])CC(Cl)CCCCCCCCCCCCCC (stereo not drawn)

>  <MEASURED_TARGET>
P388 leukemia ip, CD2F1 mice, survival T/C

>  <RESULT>
92 % of control

$$$$
>  <MOLECULE>
O=S(=O)(O)C(O)c1cccc(Cl)c1 (stereo not drawn)

>  <MEASURED_TARGET>
P388 leukemia ip, CD2F1 mice, survival T/C

>  <RESULT>
103 % of control

$$$$
>  <MOLECULE>
[C-]#[O+].[C-]#[O+].[C-]#[O+].[CH3][Sn]([c]1ccccc1)[c]1ccccc1.[W].[c-]1[c-][c-][cH-][c-]1

>  <MEASURED_TARGET>
P388 leukemia ip, CD2F1 mice, survival T/C

>  <RESULT>
110 % of control

$$$$
>  <MOLECULE>
CCCCCCCCCC(=O)NC(CN1CCOCC1)C(=O)c1ccccc1 (stereo not drawn)

>  <MEASURED_TARGET>
P388 leukemia ip, CD2F1 mice, survival T/C

>  <RESULT>
88 % of control

$$$$

* * *

# System: P388 leukemia ip, CD2F1 mice, survival T/C
# ASSAY_REMARKS: NCI In Vivo Anticancer Drug Screen. Data for tumor model P388 Leukemia (intraperitoneal) in CD2F1 (CDF1) mice
# MEASUREMENT_CONDITIONS: endpoint: median survival time; dose: 400.0 mg/kg/injection; schedule: Q04DX003 (ip); vehicle: saline with Tween-80; higher = longer survival
Inconclusive results and toxic doses are left out.
Here, each record is paired with measured T/C data.

>  <MOLECULE>
COc1cc[c]([Pb]([O]C(C)=O)([O]C(C)=O)[O]C(C)=O)cc1

>  <T/C>
111 % of control

$$$$
>  <MOLECULE>
CC1CC(=O)NC(=O)N1 (stereo not given)

>  <T/C>
103 % of control

$$$$
>  <MOLECULE>
CCC(c1ccccc1)(c1ccccc1)c1ccccc1

>  <T/C>
94 % of control

$$$$
>  <MOLECULE>
CCC(=O)O[C@H]1CC[C@H]2[C@@H]3C[C@H](C)C4=CC(=O)C=C[C@]4(C)[C@H]3C(=O)C[C@]12C

>  <T/C>
100 % of control

$$$$
>  <MOLECULE>
O=c1c2c([nH]c3ccc4[nH]c5c(c(=O)c4c13)CCCC5)CCCC2

>  <T/C>
87 % of control

$$$$
>  <MOLECULE>
CCCC(=O)c1ccc(C)cc1

>  <T/C>
86 % of control

$$$$
>  <MOLECULE>
CCN(CCN1C(=O)C2CCCCC2C1=O)c1ccc(N=O)c(C)c1 (stereo not given)

>  <T/C>
112 % of control

$$$$
>  <MOLECULE>
O=c1[nH]c2ccccc2c2ccccc12

>  <T/C>
90 % of control

$$$$
>  <MOLECULE>
O=C1OC(=O)C(c2ccccc2)(c2ccccc2)C1c1ccccc1 (stereo not given)

>  <T/C>
112 % of control

$$$$
>  <MOLECULE>
S=P(NCCS)(N1CC1)N1CC1

>  <T/C>
91 % of control

$$$$
>  <MOLECULE>
CCC(C)(C)N=C(Nc1cccnc1)Nc1nccs1

>  <T/C>
87 % of control

$$$$
>  <MOLECULE>
CCCCn1c(=O)cc[nH]c1=O

>  <T/C>
99 % of control

$$$$
>  <MOLECULE>
CCCCCCCCCCC(=O)CCCC

>  <T/C>
95 % of control

$$$$
>  <MOLECULE>
COc1cc(/C=N/Nc2ccc([N+](=O)[O-])cc2)cc(OC)c1OC

>  <T/C>
87 % of control

$$$$
>  <MOLECULE>
CC(=O)[C@H]1CC[C@H]2[C@@H]3CCC4=CC(=O)[C@H](C)C[C@]4(C)[C@H]3C(=O)C[C@]12C

>  <T/C>
95 % of control

$$$$

* * *

# System: P388 leukemia ip, CD2F1 mice, survival T/C
# ASSAY_REMARKS: NCI In Vivo Anticancer Drug Screen. Data for tumor model P388 Leukemia (intraperitoneal) in CD2F1 (CDF1) mice
# MEASUREMENT_CONDITIONS: endpoint: median survival time; dose: 200.0 mg/kg/injection; schedule: Q01DX009 (ip); vehicle: saline with Tween-80; higher = longer survival
Inconclusive results and toxic doses are left out.
Each entry below lists one item and its recorded T/C value.

>  <COMPOUND>
CCCCCCC(=O)/C=C/c1cccc(OCOC)c1

>  <T/C>
103 % of control

$$$$
>  <COMPOUND>
CC(CC(=O)O)(CC(=O)O)CC(=O)O

>  <T/C>
97 % of control

$$$$
>  <COMPOUND>
CCCCCCCCCCCCCCCCN1C(=O)/C(=C\c2ccc(O)cc2)SC1=Nc1ccccc1

>  <T/C>
92 % of control

$$$$
>  <COMPOUND>
C=C(C)C(=O)OCCO (tested in a mixture with another compound)

>  <T/C>
100 % of control

$$$$
>  <COMPOUND>
C1CC2OC2CC1C1CO1 (stereo not given)

>  <T/C>
104 % of control

$$$$
>  <COMPOUND>
CCOC(OCC)c1c(Cl)cccc1Cl

>  <T/C>
118 % of control

$$$$
>  <COMPOUND>
CCCCN(S(=O)(=O)c1ccc(C)cc1)S(=O)(=O)c1ccc(C)cc1

>  <T/C>
106 % of control

$$$$
>  <COMPOUND>
N=C(N)SCc1ccc(C(=O)NN2C(=O)c3ccccc3C2=O)cc1

>  <T/C>
97 % of control

$$$$
>  <COMPOUND>
OC1c2cc(Cl)cc(Cl)c2OC2(N3CCCC3)CCCCC12 (stereo not given)

>  <T/C>
102 % of control

$$$$
>  <COMPOUND>
CNCc1nc2sc3c(c2c(=O)[nH]1)CCCC3

>  <T/C>
102 % of control

$$$$
>  <COMPOUND>
O=C(Nc1ccccc1)OCc1ccc(OCc2ccccc2)cc1

>  <T/C>
95 % of control

$$$$
>  <COMPOUND>
COc1ccc2c(c1)C(=O)OC2

>  <T/C>
99 % of control

$$$$
>  <COMPOUND>
CN(C)Cc1nc2sc3c(c2c(=O)[nH]1)CCCC3

>  <T/C>
103 % of control

$$$$
>  <COMPOUND>
COC1/C=C/OC2(C)Oc3c(C)c(O)c4c(O)c(c(/C=N/Nc5nc6c(N)ncnc6n5C5OC(CO)C(O)C5O)c(O)c4c3C2=O)NC(=O)C(C)=C/C=C/C(C)C(O)C(C)C(O)C(C)C(OC(C)=O)C1C (stereo not given)

>  <T/C>
113 % of control

$$$$
>  <COMPOUND>
OC(CNc1ccccc1Cl)COc1ccc(Cl)cc1Cl (stereo not given)

>  <T/C>
106 % of control

$$$$
>  <COMPOUND>
O=C(Nc1nc2cccnc2s1)C(F)(F)F

>  <T/C>
94 % of control

$$$$
>  <COMPOUND>
CC(C)(C)NCC(O)CSc1nc(-c2ccc(C(N)=O)s2)cs1 (stereo not given)

>  <T/C>
109 % of control

$$$$
>  <COMPOUND>
O=C(N=C(N=C(c1ccccc1)N1CCCCC1)c1ccccc1)c1ccccc1

>  <T/C>
95 % of control

$$$$
>  <COMPOUND>
CCOC(=O)c1cc([N+](=O)[O-])c(C)n1C

>  <T/C>
96 % of control

$$$$
>  <COMPOUND>
Nc1nc2ccccc2c2c1C(=O)NC2=O

>  <T/C>
90 % of control

$$$$
>  <COMPOUND>
CC1=NNB(O)c2ccsc21

>  <T/C>
108 % of control

$$$$
>  <COMPOUND>
OCCCN1CCCCC1CO (stereo not given)

>  <T/C>
150 % of control

$$$$
>  <COMPOUND>
CCOC(=O)c1c(C)c(-c2ccccc2)c(-c2ccccc2)c(C)c1-c1ccccc1

>  <T/C>
92 % of control

$$$$
>  <COMPOUND>
COC1(OC)C2C=CC1C1CC/C=C\CCC12 (stereo not given)

>  <T/C>
103 % of control

$$$$
>  <COMPOUND>
CC(C)(CO)CS

>  <T/C>
97 % of control

$$$$
